- methodSummary: Exposure in repeated dose 13-week toxicity study (free base)
- cond: male, rat, in vivo, 250 mg/kg/day, rats, M, 250 mg/kg/day, day 1, 13-week toxicity study; read-out: AUC(0-24)
observedProperty: AUC(0-t) (µg·h/mL)
Please state the figure in µg·h/mL; there is no need to write the unit.

For the compound Cc1nc(N(C)C(=O)Cc2ccc(-c3ccccn3)cc2)sc1S(N)(=O)=O [Free base] , give its reported AUC(0-t).
567

====

- methodSummary: Exposure in repeated dose 13-week toxicity study (free base)
- cond: male, rat, in vivo, 10 mg/kg/day, rats, M, 10 mg/kg/day, day 1, 13-week toxicity study; read-out: AUC(0-24)
observedProperty: AUC(0-t) (ng·h/mL)
Please state the figure in ng·h/mL; there is no need to write the unit.

For the compound Cc1nc(N(C)C(=O)Cc2ccc(-c3ccccn3)cc2)sc1S(N)(=O)=O [Free base] , give its reported AUC(0-t).
87900

====

- methodSummary: Exposure in repeated dose 13-week toxicity study (free base)
- cond: male, rat, in vivo, 250 mg/kg/day, rats, M, 250 mg/kg/day, week 13, 13-week toxicity study; read-out: AUC(0-24)
observedProperty: AUC(0-t) (µg·h/mL)
Please state the figure in µg·h/mL; there is no need to write the unit.

For the compound Cc1nc(N(C)C(=O)Cc2ccc(-c3ccccn3)cc2)sc1S(N)(=O)=O [Free base] , give its reported AUC(0-t).
661

====

- methodSummary: Thermal analysis and polymorphic stability (DSC, TGA)
- Format: physicochemical
- cond: Thermogravimetric Analysis
- Experimental: Polymorphism refers to the ability of a solid material to exist in more than one crystal structure or solid form. Upon mild heating (about 50° C. to 60° C.), the water content is reduced which would make these salts and the free base form extremely difficult to handle and to process during production and formulation. In contrast the hydrate of the mono mesylate salt is thermally stable and polymorphic stable at much higher temperatures of considerably above 100° C. as judged by TGA. […]
observedProperty: TGA (%)
Please state the figure in %; there is no need to write the unit.

For the compound Cc1nc(N(C)C(=O)Cc2ccc(-c3ccccn3)cc2)sc1S(N)(=O)=O.Cl [1xHCl] , give its reported TGA.
2.1

For the compound Cc1nc(N(C)C(=O)Cc2ccc(-c3ccccn3)cc2)sc1S(N)(=O)=O [Free base] , give its reported TGA.
8.8

For the compound Cc1ccc(S(=O)(=O)O)cc1.Cc1nc(N(C)C(=O)Cc2ccc(-c3ccccn3)cc2)sc1S(N)(=O)=O , give its reported TGA.
5.9

For the compound CS(=O)(=O)O.Cc1nc(N(C)C(=O)Cc2ccc(-c3ccccn3)cc2)sc1S(N)(=O)=O.O [Mesylate monohydrate] , give its reported TGA.
4.3

====

- methodSummary: Exposure in repeated dose 13-week toxicity study (free base)
- cond: female, rat, in vivo, 250 mg/kg/day, rats, F, week 13, 13-week toxicity study
observedProperty: Cmax
# do not omit the unit; it follows the number

For the molecule Cc1nc(N(C)C(=O)Cc2ccc(-c3ccccn3)cc2)sc1S(N)(=O)=O [Free base] , give its reported Cmax.
83 µg/mL

====

- methodSummary: Exposure in repeated dose 13-week toxicity study (free base)
- cond: female, rat, in vivo, 50 mg/kg/day, rats, F, 50 mg/kg/day, day 1, 13-week toxicity study
observedProperty: Cmax (ng/mL)
Please state the figure in ng/mL; there is no need to write the unit.

For the compound Cc1nc(N(C)C(=O)Cc2ccc(-c3ccccn3)cc2)sc1S(N)(=O)=O [Free base] , give its reported Cmax.
35300
